assayNotes: Anodic potential of the compound at pH 5.02 by differential pulse voltammetry
Format: physicochemical
Square brackets hold non-standard residues; d marks the D form. Peptide text beside a SMILES is read from it. Aib = CC(C)(N)C(=O)O
Items are presented alongside their recorded Activity.
Express it in V; write the number only.

Sample answers from the record:
CC(C)[C@H](N)C(=O)N[C@H](C(=O)N[C@@H](Cc1ccc(O)cc1)C(=O)N1CCC[C@H]1C(=O)N[C@@H](Cc1c[nH]c2ccccc12)C(=O)N[C@H](C(=O)N[C@@H](CCCCN)C(N)=O)[C@@H](C)O)C(C)C ... 0.211
CC(C)[C@H](N)C(=O)N[C@H](C(=O)N[C@@H](Cc1ccc(O)cc1)C(=O)N1CCC[C@H]1C(=O)N[C@@H](Cc1c[nH]c2ccccc12)C(=O)N[C@H](C(=O)N[C@@H](CN)C(N)=O)[C@@H](C)O)C(C)C ... 0.225
CC(C)[C@H](N)C(=O)N[C@H](C(=O)N[C@@H](Cc1ccc(O)cc1)C(=O)N1CCC[C@H]1C(=O)N[C@@H](Cc1c[nH]c2ccccc12)C(=O)N[C@H](C(=O)N[C@@H](CCN)C(N)=O)[C@@H](C)O)C(C)C ... 0.23

The reported Activity of the molecule CC(C)[C@H](N)C(=O)N[C@H](C(=O)N[C@@H](Cc1ccc(O)cc1)C(=O)N1CCC[C@H]1C(=O)N[C@@H](Cc1c[nH]c2ccccc12)C(=O)N[C@H](C(=O)N[C@@H](CCCN)C(N)=O)[C@@H](C)O)C(C)C was 0.225

The reported Activity of the molecule CC(C)[C@H](NC(=O)[C@@H](NC(=O)C(C)(C)N)C(C)C)C(=O)N[C@@H](Cc1ccc(O)cc1)C(=O)N1CCC[C@H]1C(=O)N[C@@H](Cc1c[nH]c2ccccc12)C(=O)N[C@H](C(=O)N[C@@H](CCC(N)=O)C(N)=O)[C@@H](C)O (H-[Aib]VVYPWTQ-NH2) was 0.232

The reported Activity of the molecule CC[C@H](C)[C@H](N)C(=O)N[C@H](C(=O)N[C@H](C(=O)N[C@@H](Cc1ccc(O)cc1)C(=O)N1CCC[C@H]1C(=O)N[C@@H](Cc1c[nH]c2ccccc12)C(=O)N[C@H](C(=O)N[C@@H](CCC(N)=O)C(N)=O)[C@@H](C)O)C(C)C)C(C)C was 0.213

---

assayNotes: Anodic potential of the compound at pH 6.02 by differential pulse voltammetry
Type: physicochemical
Square brackets hold non-standard residues; d marks the D form. Peptide text beside a SMILES is read from it. Aib = CC(C)(N)C(=O)O
Items are presented alongside their recorded Activity.
Express it in V; write the number only.

Sample answers from the record:
CC(C)[C@H](N)C(=O)N[C@H](C(=O)N[C@@H](Cc1ccc(O)cc1)C(=O)N1CCC[C@H]1C(=O)N[C@@H](Cc1c[nH]c2ccccc12)C(=O)N[C@H](C(=O)N[C@@H](CCCCN)C(N)=O)[C@@H](C)O)C(C)C ... 0.15
CC(C)[C@H](NC(=O)[C@@H](NC(=O)C(C)(C)N)C(C)C)C(=O)N[C@@H](Cc1ccc(O)cc1)C(=O)N1CCC[C@H]1C(=O)N[C@@H](Cc1c[nH]c2ccccc12)C(=O)N[C@H](C(=O)N[C@@H](CCC(N)=O)C(N)=O)[C@@H](C)O (H-[Aib]VVYPWTQ-NH2) ... 0.175

The reported Activity of the compound CC(C)[C@H](N)C(=O)N[C@H](C(=O)N[C@@H](Cc1ccc(O)cc1)C(=O)N1CCC[C@H]1C(=O)N[C@@H](Cc1c[nH]c2ccccc12)C(=O)N[C@H](C(=O)N[C@@H](CCN)C(N)=O)[C@@H](C)O)C(C)C was 0.13
